assay: NCI Yeast Anticancer Drug Screen. Data for the cln2 rad14 strain (AID 165);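 also: 0% = growth equal to vehicle treated cultures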; details: S. cerevisiae cln2 rad14 strain, at 50.0 µM, active compounds read high
The panel holds about 79,000 compounds, 15% with a hit somewhere; the sample as a whole holds those more often.
Give measured growth inhibition for each item. Keep answers brief.
All answers are understood in %, so give the number only.

// query So what's the measured growth inhibition for this one? "CC1=CC(C)(C)N=C2SC(c3ccc(Cl)cc3)=NN12"
// result -5.8

// query So what's the measured growth inhibition for this one? "CCOC(=O)c1ccc(NC(=S)NC(=O)c2cccs2)o1"
// result 36.1

// query So what's the measured growth inhibition for this one? CC(N)/C(N)=N/O (stereo not drawn)
// result -2.45

// query So what's the measured growth inhibition for this one? "[Cl][Cu][Cl].c1ccc2c(c1)Sc1ccccc1[N+]2=c1ccc2nc3ccccc3sc-2c1"
// result 2.7

// query So what's the measured growth inhibition for this one? "O=C(Nc1ccccc1C/C(=N/O)c1ccc2c(c1)OCO2)c1ccccc1"
// result -32

// query So what's the measured growth inhibition for this one? CC(C)C(O)(C(=O)OCC1=CC[N+]2(C)CCC(O)C12)C(C)O (stereo not drawn)
// result -21.4

// query So what's the measured growth inhibition for this one? "CC(=O)CCC(=O)CCC(C)=O"
// result -1.85

// query So what's the measured growth inhibition for this one? [N-]=[N+]=NC(c1ccccc1)S(=O)c1ccccc1 (stereo not drawn)
// result 48

// query So what's the measured growth inhibition for this one? "O=[N+]([O-])c1cc(C=NCCCCCCN=Cc2ccc(Cl)c([N+](=O)[O-])c2)ccc1Cl"
// result -19.3

// query So what's the measured growth inhibition for this one? "COc1cccc(Nc2sc(C(=O)c3cc4cc(Cl)ccc4o3)c(N)c2C#N)c1"
// result -2.75

// query So what's the measured growth inhibition for this one? CCOCC(=O)NC1Cc2cc(OC)c(OC)cc2C1O (stereo not drawn)
// result -17.1

// query So what's the measured growth inhibition for this one? COc1ccc(OC)c(C#N)c1C#N (tested in a mixture with another compound)
// result -41.5

// query So what's the measured growth inhibition for this one? COC(=O)C1(C)CCCC2(C)C3CCC(C(C)C)CC3CCC12 (stereo not drawn)
// result -12.6

// query So what's the measured growth inhibition for this one? CCN(CC)CCC1(C#N)Cc2ccccc2N(CC)c2ccccc21 (stereo not drawn)
// result 15.6

// query So what's the measured growth inhibition for this one? CCOC(=O)C1(C)CCCc2sc(N)c(C#N)c21 (stereo not drawn)
// result -6.45

// query So what's the measured growth inhibition for this one? COc1ccc(CN(C)C)c(C(O)c2ccccc2)c1 (stereo not drawn)
// result 7.6

// query So what's the measured growth inhibition for this one? "Nc1nc2c(nnn2-c2ccc(Cl)cc2)c(=O)[nH]1"
// result -25.1

// query So what's the measured growth inhibition for this one? "Cc1cc(C)c(NC(=O)C(C)(C)C)c(C)c1"
// result -48.9

// query So what's the measured growth inhibition for this one? O=C1OC(=C(Cl)Cl)C2C3c4ccccc4C(c4ccccc43)C12 (stereo not drawn)
// result 8.75

// query So what's the measured growth inhibition for this one? "CCC(=O)NCC(=O)O"
// result 0.3

// query So what's the measured growth inhibition for this one? "O=C(/C=C/C(=O)c1ccc(O)cc1)Oc1ccccc1"
// result -15.3

// query So what's the measured growth inhibition for this one? C=C1C(=O)OC2/C=C(\C)C(OC(C)=O)C3OC3C(C)(O)CC(OC(=O)/C(C)=C/C)C12 (stereo not drawn)
// result -5.2

// query So what's the measured growth inhibition for this one? N#Cc1c(-c2ccc(Cl)cc2)c2c(n(C3OC(CO)C(O)C(O)C3O)c1=S)CCC2 (stereo not drawn)
// result 31.9
